Every entry's value here was drawn from paper PMC6937553.

TARGET_OF_ASSAY: OtCE15A (Opitutus terrae, UniProt B1ZMF4)
Construct: recombinant in E. coli BL21 (DE3), purified as in earlier work; catalytic Ser-267, His-408, Glu-290, Asp-356
Sequence (B1ZMF4 entry or part of it): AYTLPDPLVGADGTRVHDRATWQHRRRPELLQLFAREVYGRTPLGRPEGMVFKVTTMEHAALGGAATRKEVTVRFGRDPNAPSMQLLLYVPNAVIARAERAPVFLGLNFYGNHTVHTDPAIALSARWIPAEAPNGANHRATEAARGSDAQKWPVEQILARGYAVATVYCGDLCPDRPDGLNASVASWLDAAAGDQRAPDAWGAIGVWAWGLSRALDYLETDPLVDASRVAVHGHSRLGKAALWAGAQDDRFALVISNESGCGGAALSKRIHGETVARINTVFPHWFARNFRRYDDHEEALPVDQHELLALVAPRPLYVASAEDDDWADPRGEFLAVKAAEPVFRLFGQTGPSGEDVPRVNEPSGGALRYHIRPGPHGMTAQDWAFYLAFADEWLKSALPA
TEST: inhibition of BnzGlcA hydrolysis, coupled continuous assay (K-URONIC kit)
TEST_SETTINGS: competitive; BnzGlcA as substrate
REPORTED_ENDPOINT: pKi
Lab note — pKi values are minus log10 of concentrations in M.

Quick check: pKi of OC1OC[C@@H](O)[C@H](O)[C@H]1O (stereo partly shown) ? 1.32
